assay: FRG1 expression reporter modulators in myotubes – cell-based, C2C12 myotubes, firefly/Renilla luciferase, luminescence, FRG1 inhibition for FSHD, primary screen (AID 1084); settings: FRG1 promoter luciferase, higher = more signal, called active from +8 up or from −8 down
Recorded z-score, one value per entry.
Metric name: z-score

[
  {
    "Molecule": "CC(C)CCC[C@@H](C)[C@H]1CC[C@@]2(C)C3=C(CC[C@]12C)[C@@]1(C)CC[C@H](OC(=O)C(C)(C)C)C(C)(C)C1CC3 (stereo partly specified)",
    "Recorded value": -0.987
  },
  {
    "Molecule": "COc1ccc(C(=O)Nc2ccc(CN3C(=O)[C@]4(O[C@H](CCn5cc([C@H](O)c6ccccc6)nn5)[C@@H]([Si](C)(C)c5ccc(OC)cc5)[C@@H]4C)c4ccccc43)cc2)cc1",
    "Recorded value": -0.855
  },
  {
    "Molecule": "NC(=O)[C@@H]1[C@H]2C(=O)O[C@H](c3ccccc3)[C@H](c3ccccc3)N2[C@H](c2ccccc2OCCO)[C@@]12C(=O)Nc1ccc(C#CCCO)cc12",
    "Recorded value": 0.7
  },
  {
    "Molecule": "CCOC(=O)C[C@H]1[C@H](OC(=O)c2ccccc2-c2ccccc2)[C@@H](NC(=O)c2ccccc2)c2cc(OCCCO)ccc2N1C(=O)Cc1ccc(OC)cc1",
    "Recorded value": 0.57
  },
  {
    "Molecule": "CC(C)(C)OC(=O)CC[C@@]1(C(=O)N2CCCCC2)N=C(c2ccc(OCCCO)cc2)O[C@@H]1c1ccccc1CN=[N+]=[N-]",
    "Recorded value": -1.98
  },
  {
    "Molecule": "COC(=O)c1ccc(OC)c(/C=C\\CC(CCc2ccccc2)OC(C)=O)c1 (stereo unspecified)",
    "Recorded value": -2.76
  }
]

----------
Recorded composite z-score, one value per entry.
system: XIP peptide (Xip251-270); assay: compounds binding XIP fragment 251-270 – biochemical, small-molecule microarray, fluorescence 635/667 nm, 0.5 µg/mL protein, primary screen (AID 1183); details: fluorescence 635 nm, higher = more signal

[
  {
    "Compound": "CCN(CC)c1ccc(N2CC=CC34O[C@@H]5/C=C\\CCCOC(=O)C5[C@H]3C(=O)N(CCCCCO)[C@@H]4C2=O)cc1 (stereo partly specified)",
    "Experimental target": "XIP peptide (Xip251-270)",
    "composite z-score": 0.0595
  },
  {
    "Compound": "O=C1OCC=C[C@H]2OC34C=CCN(CCN5CCOCC5)C(=O)[C@H]3N(CCCCCO)C(=O)[C@@H]4[C@@H]12 (stereo partly specified)",
    "Experimental target": "XIP peptide (Xip251-270)",
    "composite z-score": 0.609
  },
  {
    "Compound": "COc1ccc([Si](C)(C)[C@@H]2[C@@H](CC(=O)N(CCO)Cc3ccccc3)O[C@]3(C(=O)N(Cc4ccc(N5CCOC5=O)cc4)c4ccccc43)[C@H]2C)cc1",
    "Experimental target": "XIP peptide (Xip251-270)",
    "composite z-score": 0.666
  },
  {
    "Compound": "CCCC=C(CCC)[C@@H](NC(=O)Cc1ccccc1)c1ccc(C(=O)OC)cc1",
    "Experimental target": "XIP peptide (Xip251-270)",
    "composite z-score": 0.34
  },
  {
    "Compound": "CN(C)C(=O)[C@@]1(CCS(=O)(=O)c2ccccc2)N=C(c2ccc(OCCCO)cc2)O[C@H]1c1ccccc1CN=[N+]=[N-]",
    "Experimental target": "XIP peptide (Xip251-270)",
    "composite z-score": 0.653
  },
  {
    "Compound": "C=C(/C(=C/C[C@@H](OC(=O)c1ccncc1)c1cccc(OCCO)c1)c1cc(C(=O)OC)ccc1OC)C(C)C",
    "Experimental target": "XIP peptide (Xip251-270)",
    "composite z-score": 0.723
  }
]

----------
target: Neurogenic locus notch homolog protein 3 (Homo sapiens); experiment: small molecules binding NOTCH3 protein – biochemical, 635/667 nm fluorescence, primary screen (AID 1096); conditions: small-molecule microarray, 635 nm fluorescence, higher = more signal
// label = rule met if composite z-score is not less than -0.03, otherwise rule not met

[
  {
    "Compound": "COC(=O)[C@@]1(Cc2ccccc2)[C@H]2c3cc(C(=O)N4CCCC4)n(Cc4ccc(OC(F)(F)F)cc4)c3C[C@H]2CN1C(=O)c1ccccc1",
    "Assigned category": "rule met"
  },
  {
    "Compound": "COCC1=C([C@H](O)CCc2ccccc2)[C@H](CO)[C@@H]2C(=O)N(C)C(=O)[C@@H]2C1",
    "Assigned category": "rule not met"
  },
  {
    "Compound": "COC(=O)C(CC#Cc1ccc2c(c1)[C@]1(C(=O)N2)[C@H](c2ccc(OCCO)cc2)N2[C@H](c3ccccc3)[C@H](c3ccccc3)OC(=O)[C@H]2[C@@H]1C(=O)O)C(=O)OC",
    "Assigned category": "rule met"
  },
  {
    "Compound": "CCC[C@@H]1C[C@@]1(CCC)[C@@H](NC(=O)c1cccs1)c1ccc(Cl)cc1",
    "Assigned category": "rule not met"
  },
  {
    "Compound": "C[C@]12C(=O)N(CCCCCO)[C@@H]3C(=O)N(c4ccc(Cl)cc4)CC=CC31O[C@@H]1/C=C\\CCCOC(=O)C12 (stereo partly drawn)",
    "Assigned category": "rule not met"
  },
  {
    "Compound": "COCCOC(=O)N1C(=O)[C@@]2(c3cc(C#CC4(O)CCCCCC4)ccc31)[C@H](C(=O)N1CCc3cc(OC)c(OC)cc3C1)[C@H]1C(=O)O[C@H](c3ccccc3)[C@H](c3ccccc3)N1[C@@H]2c1ccccc1OCCO",
    "Assigned category": "rule met"
  },
  {
    "Compound": "COCCOC(=O)N1C(=O)[C@@]2(c3cc(C#CCNC(N)=O)ccc31)[C@H](c1ccc(OCCO)cc1)N1[C@H](c3ccccc3)[C@H](c3ccccc3)OC(=O)[C@H]1[C@@H]2C(=O)N1CCN(c2ncccn2)CC1",
    "Assigned category": "rule met"
  },
  {
    "Compound": "CC1CC/C=C\\[C@H]2OC34C=CCN(Cc5ccccc5)C(=O)[C@H]3N(CCO)C(=O)[C@@H]4C2C(=O)O1 (stereo partly drawn)",
    "Assigned category": "rule not met"
  },
  {
    "Compound": "CC(C)(C)OC(=O)CC[C@]1(C(=O)N2CCCCC2)N=C(c2ccc(OCCCO)cc2)O[C@H]1c1ccccc1CN=[N+]=[N-]",
    "Assigned category": "rule met"
  },
  {
    "Compound": "C[N+](C)(C)CCCCNC(=O)[C@H]1C[C@H]2C(=O)NCC(=O)N2[C@H]1c1ccc(O)cc1",
    "Assigned category": "rule met"
  },
  {
    "Compound": "C/C=C/[C@@H](CCn1cc([C@H](O)c2ccccc2)nn1)[Si](C)(C)c1ccc(OC)cc1",
    "Assigned category": "rule not met"
  },
  {
    "Compound": "COCCOC(=O)N1C(=O)[C@@]2(c3ccccc31)[C@H](c1ccccc1OCCO)N1[C@H](c3ccccc3)[C@H](c3ccccc3)OC(=O)[C@H]1[C@@H]2C(=O)N1CCc2cc(OC)c(OC)cc2C1",
    "Assigned category": "rule met"
  },
  {
    "Compound": "COC(=O)[C@@]1(Cc2ccc(OC)cc2)[C@H]2c3cc(C(=O)N(C)C)n(Cc4cc(C)n(C)n4)c3C[C@H]2CN1C(=O)c1ccccc1",
    "Assigned category": "rule met"
  }
]

----------
tested on: wheat germ agglutinin (Triticum aestivum), Alexa647-labelled; assay: Alexa647-WGA lectin binding to printed small molecules – biochemical, small-molecule microarray, 635/667 nm fluorescence, artefact control for SMM control-protein annotation, profiling panel (AID 1140); settings: WGA-A647 binding, 635 nm fluorescence, higher = more signal;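 also: score merges 667 nm feature emission with signal to noise over triplicate slides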
// label = T if composite z-score is not less than 0.7, otherwise F

[
  {
    "Compound": "CCCCC=C[C@@H](NC(=O)CCc1ccccc1)c1ccccc1",
    "Assigned category": "T"
  },
  {
    "Compound": "C=CCOC(=O)[C@@H]1[C@H]2C(=O)O[C@H](c3ccccc3)[C@H](c3ccccc3)N2[C@H](c2ccc(OCCOC(=O)[C@@H]3C[C@@H]4C(=O)N[C@@H](CCCCNC(C)=O)C(=O)N4[C@@H]3c3ccc(O)cc3)cc2)[C@@]12C(=O)Nc1ccc(I)cc12",
    "Assigned category": "F"
  },
  {
    "Compound": "C=CC[C@]1(C(=O)N(C)C)N=C(c2ccc(OCCCO)cc2)O[C@H]1c1ccccc1",
    "Assigned category": "F"
  },
  {
    "Compound": "C[C@]12C(=O)N(CCCO)[C@@H]3C(=O)N(c4ccc(Cl)cc4)CC=CC31O[C@@H]1/C=C\\CCCOC(=O)C12 (some centres not stated)",
    "Assigned category": "T"
  },
  {
    "Compound": "CC(C)(C)N1CC=CC23O[C@@H]4C=CCCOC(=O)C4[C@H]2C(=O)N(CCCO)[C@@H]3C1=O (some centres not stated)",
    "Assigned category": "F"
  },
  {
    "Compound": "Cc1cc(C)c(C(O)C2C=CC3C(=O)N(c4ccccc4)C(=O)C3N2Nc2ccccc2)c(C)c1 (configuration not stated)",
    "Assigned category": "T"
  }
]

Reference source for all entries: PubChem BioAssay
